Test system: MCF-7 cells
assay_summary: MCF-7 GI50 determination (crystal violet growth inhibition)
Format: cell-based, human
test_parameters: Homo sapiens, MCF7, 96 h, read-out: MCF-7 Cells GI50 (nM)
Mark each entry rule met if its GI50 sits below 200 nM, and rule not met for all others.

>  <compound>
CCC1=C[C@H]2CN(CCc3c([nH]c4ccc(I)cc34)[C@@](C(=O)OC)(c3cc4c(cc3OC)N(C)[C@H]3[C@@](O)(C(=O)OC)[C@H](OC(C)=O)[C@]5(CC)C=CCN6CC[C@]43[C@@H]65)C2)C1 [Example 98, 12′-iodoanhydro vinblastine]

>  <class_name>
rule not met

$$$$
>  <compound>
CC[C@]1(O)C[C@H]2CN(CCc3c([nH]c4ccc(C#CC(C)C)cc34)[C@@](C(=O)OC)(c3cc4c(cc3OC)N(C)[C@H]3[C@@](O)(C(=O)OC)[C@H](OC(C)=O)[C@]5(CC)C=CCN6CC[C@]43[C@@H]65)C2)C1 [Example 20, 12′-(3-methylbutynyl) vinblastine]

>  <class_name>
rule not met

$$$$
>  <compound>
CC[C@]1(O)C[C@H]2CN(CCc3c([nH]c4ccc(C(C)=O)cc34)[C@@](C(=O)OC)(c3cc4c(cc3OC)N(C)[C@H]3[C@@](O)(C(=O)OC)[C@H](OC(C)=O)[C@]5(CC)C=CCN6CC[C@]43[C@@H]65)C2)C1 [Example 70, 12′-acetylvinblastine]

>  <class_name>
rule met

$$$$
>  <compound>
CCOC(=O)/C=C/c1ccc2[nH]c3c(c2c1)CCN1C[C@H](C[C@@](O)(CC)C1)C[C@]3(C(=O)OC)c1cc2c(cc1OC)N(C)[C@H]1[C@@](O)(C(=O)OC)[C@H](OC(C)=O)[C@]3(CC)C=CCN4CC[C@]21[C@@H]43 [Example 26, 12′-(2-ethoxycarbonylvinyl)vinblastine]

>  <class_name>
rule met

$$$$
>  <compound>
CC[C@]1(O)C[C@H]2CN(CCc3c([nH]c4ccc(SCCN(C)C)cc34)[C@@](C(=O)OC)(c3cc4c(cc3OC)N(C)[C@H]3[C@@](O)(C(=O)OC)[C@H](OC(C)=O)[C@]5(CC)C=CCN6CC[C@]43[C@@H]65)C2)C1 [Example 48]

>  <class_name>
rule met

$$$$
>  <compound>
CC[C@]1(O)C[C@H]2CN(CCc3c([nH]c4ccc(SCCC(=O)OC)cc34)[C@@](C(=O)OC)(c3cc4c(cc3OC)N(C=O)[C@H]3[C@@](O)(C(=O)OC)[C@H](OC(C)=O)[C@]5(CC)C=CCN6CC[C@]43[C@@H]65)C2)C1 [Example 47]

>  <class_name>
rule met

$$$$
>  <compound>
CC[C@]1(O)C[C@H]2CN(CCc3c([nH]c4ccc(Sc5ccccc5O)cc34)[C@@](C(=O)OC)(c3cc4c(cc3OC)N(C)[C@H]3[C@@](O)(C(=O)OC)[C@H](OC(C)=O)[C@]5(CC)C=CCN6CC[C@]43[C@@H]65)C2)C1 [Example 55]

>  <class_name>
rule met

$$$$
>  <compound>
CC[C@]1(O)C[C@H]2CN(CCc3c([nH]c4ccc(Nc5ccccc5)cc34)[C@@](C(=O)OC)(c3cc4c(cc3OC)N(C)[C@H]3[C@@](O)(C(=O)OC)[C@H](OC(C)=O)[C@]5(CC)C=CCN6CC[C@]43[C@@H]65)C2)C1 [Example 82, 12′-(phenylamino) vinblastine]

>  <class_name>
rule not met

$$$$
>  <compound>
CC[C@]1(O)C[C@H]2CN(CCc3c([nH]c4ccc(-c5cccc(O)c5)cc34)[C@@](C(=O)OC)(c3cc4c(cc3OC)N(C)[C@H]3[C@@](O)(C(=O)OC)[C@H](OC(C)=O)[C@]5(CC)C=CCN6CC[C@]43[C@@H]65)C2)C1 [Example 12, 12′-(3-hydroxyphenyl) vinblastine]

>  <class_name>
rule not met

$$$$
>  <compound>
CC[C@]1(O)C[C@H]2CN(CCc3c([nH]c4ccc(SCCCN5CCOCC5)cc34)[C@@](C(=O)OC)(c3cc4c(cc3OC)N(C)[C@H]3[C@@](O)(C(=O)OC)[C@H](OC(C)=O)[C@]5(CC)C=CCN6CC[C@]43[C@@H]65)C2)C1 [Example 49]

>  <class_name>
rule met

$$$$
>  <compound>
CC[C@]1(O)C[C@H]2CN(CCc3c([nH]c4ccc(SSC(C)(C)C)cc34)[C@@](C(=O)OC)(c3cc4c(cc3OC)N(C)[C@H]3[C@@](O)(C(=O)OC)[C@H](OC(C)=O)[C@]5(CC)C=CCN6CC[C@]43[C@@H]65)C2)C1 [Example 59, 12′-(tert-butyldisulfanyl) vinblastine]

>  <class_name>
rule not met

$$$$
>  <compound>
CC[C@]1(O)C[C@H]2CN(CCc3c([nH]c4ccc(C(=O)NC)cc34)[C@@](C(=O)OC)(c3cc4c(cc3OC)N(C)[C@H]3[C@@](O)(C(=O)OC)[C@H](OC(C)=O)[C@]5(CC)C=CCN6CC[C@]43[C@@H]65)C2)C1 [Example 69, 12′-N-(methylaminocarbonyl)vinblastine]

>  <class_name>
rule not met

$$$$
